Test: Maximum aqueous solubility (shaken in water at 37°C, filtered, UV spectrum)
Format: physicochemical
Settings: read-out: Solubility when dissolved at 50mg/ml
Counter-ions that a name gives are not always drawn.
readout: solubility (mg/mL)
Value expressed in mg/mL; do not type the unit.

Input COCCC[C@H](NC(=O)[C@@H]1CCCN1C(=O)[C@@H](Cc1ccccc1)NC(=O)OCc1ccccc1)B(O)O [lithium salt] . Output solubility: 43
